- Species on record: Rattus norvegicus
- PROTOCOL_DESCRIPTION: Antidiuretic activity in rat
- Type: functional, Urine
Positions of bridges follow the written chain, without caps; N, C: chain ends. Non-standard residues stand in square brackets, D forms with d. Residues, ends and D or L forms follow the SMILES beside them. Orn = NCCC[C@H](N)C(=O)O; Dap = NC[C@H](N)C(=O)O; Mpa = O=C(O)CCS
ASSAY_METRIC: Activity (U/mg)
Note: unit U/mg is implicit; provide only the numeric part.

MOLECULE	UNITS	Activity
CC(C)C[C@@H]1NC(=O)[C@H](Cc2ccccc2)NC(=O)[C@H](Cc2ccc(O)cc2)NC(=O)CCSSC[C@@H](C(=O)N2CCC[C@H]2C(=O)N[C@@H](CN)C(=O)NCC(N)=O)NC(=O)[C@H](CC(N)=O)NC1=O ([Mpa]YFLNCP[Dap]G-NH2; disulfide 1-6)	U/mg	0.7

// below: Activity requested for another molecule
query: Fill in the blank: the reported Activity of NCCC[C@@H]1NC(=O)[C@H](Cc2ccccc2)NC(=O)[C@H](Cc2ccc(O)cc2)NC(=O)CCSSC[C@@H](C(=O)N2CCC[C@H]2C(=O)N[C@@H](CCCN=C(N)N)C(=O)NCC(N)=O)NC(=O)[C@H](CC(N)=O)NC1=O ([Mpa]YF[Orn]NCPRG-NH2; disulfide 1-6) is ____.
result: 260.32
